Experiment: solvent given as SMILES
Details: in ClCCl
Would you mind telling me the reported absorption maximum of each entry?
Provide the reading as a plain figure in nm.

Inquiry: Which absorption maximum is reported for this molecule? `O=C1NC(=O)c2c1c1c3ccccc3[nH]c1c1[nH]c3ccccc3c21`
Reply text: 401

Inquiry: Which absorption maximum is reported for this molecule? `CCCCCCCCCCCCN1C(=O)c2cccc3c(N(Cc4ccccn4)Cc4ccccn4)c4ccccc4c(c23)C1=O`
Reply text: 500

Inquiry: Which absorption maximum is reported for this molecule? `COc1ccc2nc(/N=N/c3ccc(N(C)C)cc3)sc2c1`
Reply text: 506

Inquiry: Which absorption maximum is reported for this molecule? `Cc1ccc(/C=C/c2nc(-c3cccc([N+](=O)[O-])c3)[nH]c2/C=C/c2ccc(C)cc2)cc1`
Reply text: 370

Inquiry: Which absorption maximum is reported for this molecule? `c1ccc(N(c2ccccc2)c2ccc(-c3ccc4c(c3)C3(c5ccccc5Sc5ccccc53)c3cc(-c5ccc(N(c6ccccc6)c6ccccc6)cc5)ccc3-4)cc2)cc1`
Reply text: 375

Inquiry: Which absorption maximum is reported for this molecule? `CCCCCCCCCCCn1cccc1C1=[N+]2C(=Cc3c(C)cc(C)n3[B-]2(F)F)c2ccccc21`
Reply text: 584

Inquiry: Which absorption maximum is reported for this molecule? `Clc1ccc(N2c3sc4ccccc4c3Sc3sc4ccccc4c32)cc1`
Reply text: 310

Inquiry: Which absorption maximum is reported for this molecule? `CC(C)(C)c1ccc2c(c1)sc1[n+]2[B-](F)(F)n2c(c3cccc4c(Br)ccc2c43)=N1`
Reply text: 463

Inquiry: Which absorption maximum is reported for this molecule? `c1csc(-c2ccc3c4ccc(-c5cccs5)cc4n(-c4cccs4)c3c2)c1`
Reply text: 352

Inquiry: Which absorption maximum is reported for this molecule? `CCCCCCOc1ccc(N(c2ccc(OCCCCCC)cc2)c2ccc(-c3sc(-c4ccc(N(c5ccc(OCCCCCC)cc5)c5ccc(OCCCCCC)cc5)cc4)c4nc(CC)c(CC)nc34)cc2)cc1`
Reply text: 532

Inquiry: Which absorption maximum is reported for this molecule? `COc1cccc2cc(C)c3c4ccccc4n(C)c3c12`
Reply text: 370

Inquiry: Which absorption maximum is reported for this molecule? `CCCCCCCCOc1ccc(C2=C3C(C)=CC(C)=[N+]3[B-](F)(F)n3c(C)cc(C)c32)cc1`
Reply text: 500

Inquiry: Which absorption maximum is reported for this molecule? `COc1ccc2c(c1)CCC1=C(C#Cc3ccc(Cl)cc3)O[B-](F)(F)[O+]=C12`
Reply text: 445

Inquiry: Which absorption maximum is reported for this molecule? `CCc1c(C)c2n(c1C)[B-](F)(F)[N+]1=C(NCc3ccc(OC)cc3)C=CC1=C2C`
Reply text: 531

Inquiry: Which absorption maximum is reported for this molecule? `CCCCCCCCCCOc1ccc(C#Cc2cc3c(C#Cc4ccc(OCCCCCCCCCC)cc4)c(C#Cc4ccc(OCCCCCCCCCC)cc4)c4cc(C#Cc5ccc(OCCCCCCCCCC)cc5)cc5c(C#Cc6ccc(OCCCCCCCCCC)cc6)c(C#Cc6ccc(OCCCCCCCCCC)cc6)c(c2)c3c45)cc1`
Reply text: 421

Inquiry: Which absorption maximum is reported for this molecule? `Cc1ccc2c(c1)C(C)(C)c1cc(C)ccc1N2c1ccc2c(c1)C(C)(C)c1cc(N3c4ccc(C)cc4C(C)(C)c4cc(C)ccc43)ccc1S2(=O)=O`
Reply text: 370

Inquiry: Which absorption maximum is reported for this molecule? `N#CSc1ccc2n1[B-](F)(F)[N+]1=C(N3CCOCC3)C=CC1=C2c1ccccc1`
Reply text: 468

Inquiry: Which absorption maximum is reported for this molecule? `CC(C)(C)c1ccc2c(c1)c1cc(C(C)(C)C)ccc1n2-c1ccc(C(=O)c2ccncc2)cc1`
Reply text: 377.92
